B1: TTC32 (parent)
chain: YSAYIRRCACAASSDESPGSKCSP

- Variants of: B1
- ASSAY_INFO: protein stability index of a GFP-peptide fusion (GPS, HEK-293T) (PSI 1-6); higher = more stable;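 note: lentivirally expressed fusions sorted by FACS into six bins by GFP to DsRed ratio, PSI derived from sequencing read proportions per bin multiplied by bin number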
- EXPERIMENTAL_CONDITIONS: c terminus: a fixed tail appended
READOUT_KIND: protein stability index
Reply with just the number.

Consider the variant shown here: `S14M` What is its recorded protein stability index?
1.4
